target: CCT/TRiC (Saccharomyces cerevisiae); construct: gene CCT2; native complex from yeast cells, two back-to-back rings each of eight distinct subunits CCT1-CCT8; CCT2 mutations introduced in the chromosomal gene; experiment: stopped-flow transient kinetics of phosphate release (labelled phosphate-binding protein), burst-phase rates fit to simple binding; type: biochemical; conditions: 25 °C, pH 7.5 Tris-HCl, 10 mM MgCl2, 50 mM KCl, 20% glycerol, 1 mM DTT; both burst phases similar; read-out: ATP affinity (Kd)
pKd: −log10 of the molar value.
measured.endpoint: pKd

Problem: # lookup: pKd of Nc1ncnc2c1ncn2[C@@H]1O[C@H](COP(=O)(O)OP(=O)(O)OP(=O)(O)O)[C@@H](O)[C@H]1O
Solution: ~5.15
